Values compiled from paper PMC11031820.

biological target: GIRK4 (Rattus norvegicus); construct: gene Kcnj5; assay: two-electrode voltage clamp in Xenopus oocytes, homomeric GIRK4 co-expressed with Gβγ; assay type: cell-based
Sequence (P48548 whole entry): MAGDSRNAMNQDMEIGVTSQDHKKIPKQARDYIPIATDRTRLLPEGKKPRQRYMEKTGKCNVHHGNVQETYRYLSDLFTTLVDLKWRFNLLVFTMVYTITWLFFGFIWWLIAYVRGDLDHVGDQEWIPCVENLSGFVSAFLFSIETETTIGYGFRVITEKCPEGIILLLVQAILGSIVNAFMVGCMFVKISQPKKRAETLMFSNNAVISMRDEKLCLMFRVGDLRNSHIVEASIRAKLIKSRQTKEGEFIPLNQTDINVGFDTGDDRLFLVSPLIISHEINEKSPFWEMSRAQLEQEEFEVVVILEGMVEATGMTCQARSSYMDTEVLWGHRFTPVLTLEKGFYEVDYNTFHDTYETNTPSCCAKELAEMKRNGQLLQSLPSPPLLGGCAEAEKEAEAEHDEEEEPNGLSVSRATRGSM
Sequence (P62871 2-340 partner): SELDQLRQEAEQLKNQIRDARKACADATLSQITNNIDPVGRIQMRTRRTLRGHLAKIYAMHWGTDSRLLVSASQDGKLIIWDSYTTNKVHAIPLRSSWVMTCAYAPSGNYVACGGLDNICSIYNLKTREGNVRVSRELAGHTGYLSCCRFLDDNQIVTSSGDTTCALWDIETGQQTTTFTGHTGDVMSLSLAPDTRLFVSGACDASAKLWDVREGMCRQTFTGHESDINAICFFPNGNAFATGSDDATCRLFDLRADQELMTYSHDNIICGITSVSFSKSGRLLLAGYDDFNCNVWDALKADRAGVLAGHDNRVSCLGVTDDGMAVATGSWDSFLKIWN
Sequence (P63212 2-68 partner): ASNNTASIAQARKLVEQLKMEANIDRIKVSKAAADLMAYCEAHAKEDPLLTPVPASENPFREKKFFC
READOUT_KIND: pIC50
Friendly reminder that pIC50 comes from taking -log10 of the concentration in mol/L.

Query :: // pIC50 lookup, key: CN(C)CCN(C)CCc1ccc(Cl)c(Cl)c1
Result :: 4.76
